Tested on: apomorphine-induced stereotypy in rats
METHOD_DESCRIPTION: Apomorphine-induced stereotypy in rats (APO)
Assay type: in vivo
ASSAY_SETUP: Rattus norvegicus; dose at which 50% of the tested animals show the effect; ≧: active in 30% of the animals at the indicated dose; ≦: active in 60%
REPORTED_PROPERTY: ED50 (mg/kg)

MOLECULAR_STRING: COC(C)(C)Cc1ccc(-c2c(C)nc3c(N4CCOCC4)ccnn23)cn1
REL: =
QUANTITATIVE_READOUT: 0.8
--
MOLECULAR_STRING: COC(C)(C)CCc1ccc(-c2c(C)nc3c(N4CCOCC4)ccnn23)cn1
REL: ≥
QUANTITATIVE_READOUT: 2.5
--
MOLECULAR_STRING: Cc1nc2c(N3CCOCC3)ccnn2c1-c1ccnc(N2CCOCC2)c1
REL: =
QUANTITATIVE_READOUT: 1.2
--
MOLECULAR_STRING: CO[C@@H](C)Cn1cc(-c2c(C)nc3c(N4CCOCC4)ccnn23)cn1
REL: =
QUANTITATIVE_READOUT: 3.1
--
MOLECULAR_STRING: COCCc1ccc(-c2c(C3CC3)nc3c(-c4ccncc4)ccnn23)cn1
REL: =
QUANTITATIVE_READOUT: 1.2
--
MOLECULAR_STRING: COCCn1cc(-c2c(C)nc3c(-c4ccncc4)cc(C)nn23)cn1
REL: =
QUANTITATIVE_READOUT: 5
--
MOLECULAR_STRING: Cc1nc2c(-c3ccncc3)ccnn2c1-c1cnn(CC(C)C)c1
REL: =
QUANTITATIVE_READOUT: 1.2
--
MOLECULAR_STRING: CCc1ccc(-c2c(C)nc3c(N4CCOCC4)ccnn23)cn1
REL: =
QUANTITATIVE_READOUT: 1.2
--
MOLECULAR_STRING: COC(C)(C)COc1ccc(-c2c(C)nc3c(N4CCOCC4)ccnn23)cn1
REL: =
QUANTITATIVE_READOUT: 5
--
MOLECULAR_STRING: COCCn1cc(-c2c(C)nc3c(N4CCOCC4)ccnn23)cn1
REL: =
QUANTITATIVE_READOUT: 5
--
MOLECULAR_STRING: COCCn1cc(-c2c(C)nc3c(N4CCOCC4)cc(C4CC4)nn23)cn1
REL: ≥
QUANTITATIVE_READOUT: 2.5
--
MOLECULAR_STRING: COC(C)(C)Cn1cc(-c2c(C)nc3c(N4CCOCC4)ccnn23)cn1
REL: =
QUANTITATIVE_READOUT: 1.5
--
MOLECULAR_STRING: Cc1nc2c(N3CCOCC3)ccnn2c1-c1ccc(N2CCOCC2)nc1
REL: =
QUANTITATIVE_READOUT: 5
--
MOLECULAR_STRING: COC(C)(C)Cc1ccc(-c2c(C)nc3c(-c4ccncc4)cc(C)nn23)cn1
REL: ≥
QUANTITATIVE_READOUT: 2.5
--
MOLECULAR_STRING: COCCOc1ccc(-c2c(C)nc3c(-c4ccncc4)ccnn23)cn1
REL: =
QUANTITATIVE_READOUT: 1.5
--
MOLECULAR_STRING: CC(C)Cn1cc(-c2c(C3CC3)nc3c(-c4ccncc4)ccnn23)cn1
REL: =
QUANTITATIVE_READOUT: 5
--
MOLECULAR_STRING: COCCn1cc(-c2c(C3CC3)nc3c(-c4ccncc4)ccnn23)cn1
REL: =
QUANTITATIVE_READOUT: 5
--
MOLECULAR_STRING: COC(C)(C)Cc1ccc(-c2c(C3CC3)nc3c(-c4ccncc4)ccnn23)cn1
REL: =
QUANTITATIVE_READOUT: 0.8
--
MOLECULAR_STRING: COCCOc1ccc(-c2c(C)nc3c(N4CCOCC4)ccnn23)cn1
REL: =
QUANTITATIVE_READOUT: 3.1
--
MOLECULAR_STRING: Cc1nc2c(N3CCOCC3)ccnn2c1-c1cnn(CC(C)C)c1
REL: =
QUANTITATIVE_READOUT: 5
--
MOLECULAR_STRING: c1cc(-c2ccnn3c(-c4ccc(N5CCOCC5)nc4)cnc23)ccn1
REL: =
QUANTITATIVE_READOUT: 1.2
--
MOLECULAR_STRING: COCCc1ccc(-c2c(C)nc3c(N4CCOCC4)ccnn23)cn1
REL: =
QUANTITATIVE_READOUT: 1.3

From: patent US20120220581A1
